Origin of measurements: ChEMBL document CHEMBL1140699

molecular target: Transient receptor potential cation channel subfamily V member 1 (Rattus norvegicus); assay: Agonist activity at rat TRPV1 receptor expressed in CHO cells assessed as calcium 45 uptake at 30 uM; type: functional, cell-based
Sequence (O35433 whole entry): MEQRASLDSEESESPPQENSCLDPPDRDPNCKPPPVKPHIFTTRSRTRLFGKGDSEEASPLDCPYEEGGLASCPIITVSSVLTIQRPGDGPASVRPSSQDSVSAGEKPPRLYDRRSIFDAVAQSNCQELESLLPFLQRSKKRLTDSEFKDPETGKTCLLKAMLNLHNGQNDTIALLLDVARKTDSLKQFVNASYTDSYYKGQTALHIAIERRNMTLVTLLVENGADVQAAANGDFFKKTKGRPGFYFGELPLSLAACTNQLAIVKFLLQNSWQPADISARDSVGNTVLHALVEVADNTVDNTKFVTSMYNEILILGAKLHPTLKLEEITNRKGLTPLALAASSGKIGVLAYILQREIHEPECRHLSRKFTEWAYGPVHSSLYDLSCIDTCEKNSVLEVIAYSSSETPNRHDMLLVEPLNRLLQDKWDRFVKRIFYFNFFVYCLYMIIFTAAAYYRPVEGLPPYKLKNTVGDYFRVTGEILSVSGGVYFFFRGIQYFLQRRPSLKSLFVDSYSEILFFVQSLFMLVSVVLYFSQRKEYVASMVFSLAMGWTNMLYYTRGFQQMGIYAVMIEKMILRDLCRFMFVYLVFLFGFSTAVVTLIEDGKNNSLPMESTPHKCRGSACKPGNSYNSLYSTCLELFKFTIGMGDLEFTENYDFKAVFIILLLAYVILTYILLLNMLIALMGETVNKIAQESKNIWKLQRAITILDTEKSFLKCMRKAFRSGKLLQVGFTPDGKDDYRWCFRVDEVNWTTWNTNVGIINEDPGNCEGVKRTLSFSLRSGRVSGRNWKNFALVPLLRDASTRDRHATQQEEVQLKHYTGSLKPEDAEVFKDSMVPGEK
The source made the active and inactive calls. The calls are words filed in the database; no cut-off is given here.
recordedEndpoint: Activity

>>> measuredvalue("Cc1ccc(CC(CNC(=O)C2(c3ccc(NS(C)(=O)=O)cc3)CC2)COC(=O)C(C)(C)C)cc1C (stereo not drawn)")
"inactive"
>>> measuredvalue("COc1cc(C2(C(=O)NCC(COC(=O)C(C)(C)C)Cc3ccc(C)c(C)c3)CC2)ccc1NS(C)(=O)=O (stereo not drawn)")
"inactive"
>>> measuredvalue("C[C@@H](C(=O)NC[C@H](COC(=O)C(C)(C)C)Cc1ccc(C(C)(C)C)cc1)c1ccc(NS(C)(=O)=O)c(F)c1")
"inactive"
>>> measuredvalue("Cc1ccc(CC(CNC(=O)C(C)(C)c2ccc(NS(C)(=O)=O)cc2)COC(=O)C(C)(C)C)cc1C (stereo not drawn)")
"inactive"
>>> measuredvalue("Oc1cc2c(cc1O)CN(C(=S)NCCc1ccc(Cl)cc1)CCC2")
"inactive"
>>> measuredvalue("C[C@@H](C(=O)NC[C@@H](COC(=O)C(C)(C)C)Cc1ccccc1)c1ccc(NS(C)(=O)=O)c(F)c1")
"inactive"
>>> measuredvalue("C[C@H](C(=O)NC[C@@H](COC(=O)C(C)(C)C)Cc1ccccc1)c1ccc(NS(C)(=O)=O)c(F)c1")
"inactive"
>>> measuredvalue("CC(C(=O)NCC(COC(=O)C(C)(C)C)Cc1ccc(C(C)(C)C)cc1)c1ccc(NS(C)(=O)=O)cc1 (stereo not drawn)")
"inactive"
>>> measuredvalue("Cc1ccc(CC(CNC(=O)C(C)(C)c2ccc(NS(C)(=O)=O)c(F)c2)COC(=O)C(C)(C)C)cc1C (stereo not drawn)")
"inactive"
>>> measuredvalue("Cc1ccc(CC(CNC(=S)NCc2ccc(NS(C)(=O)=O)c(F)c2)COC(=O)C(C)(C)C)cc1C (stereo not drawn)")
"inactive"

Noted for C[C@H](C(=O)NC[C@H](COC(=O)C(C)(C)C)Cc1ccc(C(C)(C)C)cc1)c1ccc(NS(C)(=O)=O)c(Cl)c1 : its Activity reads inactive

Noted for COc1cc(C(C)(C)C(=O)NCC(COC(=O)C(C)(C)C)Cc2ccc(C)c(C)c2)ccc1NS(C)(=O)=O (stereo not drawn) : its Activity reads inactive

Noted for Cc1ccc(CC(CNC(=O)C2(c3ccc(NS(C)(=O)=O)c(F)c3)CC2)COC(=O)C(C)(C)C)cc1C (stereo not drawn) : its Activity reads inactive

Noted for C[C@H](C(=O)NC[C@@H](COC(=O)C(C)(C)C)Cc1ccc(C(C)(C)C)cc1)c1ccc(NS(C)(=O)=O)c(F)c1 : its Activity reads inactive

Noted for C[C@H](C(=O)NC[C@@H](COC(=O)C(C)(C)C)Cc1ccc(C(C)(C)C)cc1)c1ccc(NS(C)(=O)=O)c(Cl)c1 : its Activity reads inactive

Noted for Cc1ccc(CC(CNC(=O)C(C)c2ccc(NS(C)(=O)=O)c(F)c2)COC(=O)C(C)(C)C)cc1C (stereo not drawn) : its Activity reads inactive

Noted for C[C@@H](C(=O)NC[C@H](COC(=O)C(C)(C)C)Cc1ccccc1)c1ccc(NS(C)(=O)=O)c(F)c1 : its Activity reads inactive

Noted for Cc1ccc(CC(CNC(=O)C(C)c2ccc(NS(C)(=O)=O)cc2)COC(=O)C(C)(C)C)cc1C (stereo not drawn) : its Activity reads inactive

====

target: Transient receptor potential cation channel subfamily V member 1 (Rattus norvegicus) (UniProt O35433); assay: Agonist activity at rat TRPV1 receptor expressed in CHO cells assessed as calcium 45 uptake relative to 300 nM capsaicin; type: functional, cell-based
Sequence (O35433 whole entry): as above
// Activity lookup, one value per entry
Response body: numeric value in %, unit text excluded.

Answered examples (6):
>>> measuredvalue("COc1cc(C(C)C(=O)NCC(COC(=O)C(C)(C)C)Cc2ccc(C)c(C)c2)ccc1NS(C)(=O)=O (configuration not stated)")
10
>>> measuredvalue("CC(C(=O)NCC(COC(=O)C(C)(C)C)Cc1ccc(C(C)(C)C)cc1)c1ccc(NS(C)(=O)=O)c(F)c1 (configuration not stated)")
8
>>> measuredvalue("CC(C)(C)C(=O)OCC(CNC(=O)Cc1ccc(NS(C)(=O)=O)c(F)c1)Cc1ccc(C(C)(C)C)cc1 (configuration not stated)")
7
>>> measuredvalue("Cc1ccc(CC(CNC(=O)C(C)c2ccc(NS(C)(=O)=O)c(Cl)c2)COC(=O)C(C)(C)C)cc1C (configuration not stated)")
16
>>> measuredvalue("CC(C)(C)C(=O)OCC(CNC(=S)NCc1ccc(NS(C)(=O)=O)c(F)c1)Cc1ccc(C(C)(C)C)cc1 (configuration not stated)")
5
>>> measuredvalue("COc1cc(C(C)C(=O)NCC(COC(=O)C(C)(C)C)Cc2ccc(C(C)(C)C)cc2)ccc1NS(C)(=O)=O (configuration not stated)")
40

// switching to the query compound
Noted for C[C@@H](C(=O)NC[C@@H](COC(=O)C(C)(C)C)Cc1ccc(C(C)(C)C)cc1)c1ccc(NS(C)(=O)=O)c(F)c1 : its Activity reads 9

====

target: Transient receptor potential cation channel subfamily V member 1 (Rattus norvegicus); assay: Antagonist activity at rat TRPV1 receptor expressed in CHO cells assessed as calcium 45 uptake; format: functional, cell-based
// pKi lookup, one value per entry
// pKi here means minus log10 of the molar concentration (mol/L)

>>> measuredvalue("CC(C)(C)C(=O)OCC(CNC(=O)Cc1ccc(NS(C)(=O)=O)c(F)c1)Cc1ccc(C(C)(C)C)cc1 (stereo not drawn)")
6.36

Noted for C=C(C)[C@]12C[C@@H](C)[C@@]34O[C@](Cc5ccccc5)(O[C@@H]1[C@@H]3C=C(COC(=O)Cc1cc(I)c(O)c(OC)c1)C[C@]1(O)C(=O)C(C)=C[C@@H]41)O2 : its pKi reads 7.91

Noted for CC(C)(C)C(=O)OCC(CNC(=S)NCc1ccc(NS(C)(=O)=O)c(F)c1)Cc1ccc(C(C)(C)C)cc1 (stereo not drawn) : its pKi reads 7.28

====

target: UniProt:O35433; assay: Antagonist activity at rat TRPV1 receptor expressed in CHO cells assessed as capsaicin-induced calcium 45 uptake; type: functional, cell-based; parameters: concentration or dose not given beside the values
recordedEndpoint: Activity (%)
Response body: numeric value in %, unit text excluded.

Answered examples (4):
>>> measuredvalue("CC(C(=O)NCC(COC(=O)C(C)(C)C)Cc1ccc(C(C)(C)C)cc1)c1ccc(NS(C)(=O)=O)c(Cl)c1 (stereo not given)")
61
>>> measuredvalue("CC(C)(C)C(=O)OCC(CNC(=O)Cc1ccc(NS(C)(=O)=O)c(F)c1)Cc1ccc(C(C)(C)C)cc1 (stereo not given)")
56
>>> measuredvalue("CC(C(=O)NCC(COC(=O)C(C)(C)C)Cc1ccc(C(C)(C)C)cc1)c1ccc(NS(C)(=O)=O)c(F)c1 (stereo not given)")
95
>>> measuredvalue("Cc1ccc(CC(CNC(=O)Cc2ccc(NS(C)(=O)=O)c(F)c2)COC(=O)C(C)(C)C)cc1C (stereo not given)")
71

// switching to the query compound
Noted for COc1cc(C(C)C(=O)NCC(COC(=O)C(C)(C)C)Cc2ccc(C)c(C)c2)ccc1NS(C)(=O)=O (stereo not given) : its Activity reads 63

====

molecular target: Transient receptor potential cation channel subfamily V member 1 (Rattus norvegicus); assay: Agonist activity at rat TRPV1 receptor expressed in CHO cells assessed as calcium 45 uptake at 30 uM; type: functional, cell-based
Activity calls are given as the source filed them. The calls are words filed in the database; no cut-off is given here.
recordedEndpoint: Activity

>>> measuredvalue("C=C(C)[C@]12C[C@@H](C)[C@@]34O[C@](Cc5ccccc5)(O[C@@H]1[C@@H]3C=C(COC(=O)Cc1cc(I)c(O)c(OC)c1)C[C@]1(O)C(=O)C(C)=C[C@@H]41)O2")
"inactive"
>>> measuredvalue("C[C@H](C(=O)NC[C@H](COC(=O)C(C)(C)C)Cc1ccc(C(C)(C)C)cc1)c1ccc(NS(C)(=O)=O)c(F)c1")
"inactive"
>>> measuredvalue("C[C@H](C(=O)NC[C@H](COC(=O)C(C)(C)C)Cc1ccccc1)c1ccc(NS(C)(=O)=O)c(F)c1")
"inactive"

====

// pKi lookup, one value per entry
target: Transient receptor potential cation channel subfamily V member 1 (Rattus norvegicus); assay: Displacement of [3H]RTX from rat TRPV1 receptor expressed in CHO cells; format: cell-based
// pKi here means minus log10 of the molar concentration (mol/L)

Answered examples (3):
>>> measuredvalue("Cc1ccc(CC(CNC(=O)C(C)(C)c2ccc(NS(C)(=O)=O)c(F)c2)COC(=O)C(C)(C)C)cc1C (stereo not given)")
6.55
>>> measuredvalue("C[C@H](C(=O)NC[C@H](COC(=O)C(C)(C)C)Cc1ccc(C(C)(C)C)cc1)c1ccc(NS(C)(=O)=O)c(F)c1")
8.39
>>> measuredvalue("C=C(C)[C@]12C[C@@H](C)[C@@]34O[C@](Cc5ccccc5)(O[C@@H]1[C@@H]3C=C(COC(=O)Cc1cc(I)c(O)c(OC)c1)C[C@]1(O)C(=O)C(C)=C[C@@H]41)O2")
9.21

Noted for C[C@H](C(=O)NC[C@@H](COC(=O)C(C)(C)C)Cc1ccccc1)c1ccc(NS(C)(=O)=O)c(F)c1 : its pKi reads 7.78

Noted for C[C@H](C(=O)NC[C@@H](COC(=O)C(C)(C)C)Cc1ccc(C(C)(C)C)cc1)c1ccc(NS(C)(=O)=O)c(F)c1 : its pKi reads 8.20
